System: MS2 coat protein
Test: apparent KD of MS2 coat protein; designed switch direction (-1 OFF switch, 1 ON switch): 1; higher = weaker reporter binding
Details: input ligand: microRNA oligo, concentration not stated
Overview of recorded apparent KD of MS2 coat protein for various sequences
measuredQuantity: apparent KD of MS2 coat protein (nM)

residueString	assayResult
AAACGCAGCAUAUCGCUGCGACAUGAGGAUCACCCAUGUACACAGGAUAUCGCGGCAUACCGCCACGAGAAGGGUGAUCAAGAC [Vebixeriso] (Eterna round: R96, puzzle: Same State NG 3)	82.9
GGAGGAUUCGCAGGAUAUUCCUGAACACUGUAGGAAGAAGGGUGACGUAUCAGCACCAAGUGACAUGAGGAUCACCCAUGUUAA [Eternabot solution 24] (Eterna round: R96, puzzle: Same State NG 1)	93.7
AGAAAUCAACGCGCACAUGAGGAUCACCCAUGUGCUCAAGCACAGGAUAUCGGCACAAGACAGGCCGAGAAGGGUGGAGCACGA [Eternabot solution 3] (Eterna round: R96, puzzle: Same State NG 3)	19.7

This collection of values is drawn from the supplement of paper PMC9170038.
